List of self-cleavage kobs at 10000 uM GlcN6P values.
B1: glmS ribozyme (parent)
chain: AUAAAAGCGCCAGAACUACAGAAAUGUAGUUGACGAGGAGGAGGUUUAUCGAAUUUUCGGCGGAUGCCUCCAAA

Variants of: B1
Test: self-cleavage kobs at 10000 uM GlcN6P; higher = faster cleavage; RNA array
Details: with glucosamine-6-phosphate
Variants at the floor of the assay were thinned out.
Return type: number; implicit unit s⁻¹.

// worked examples, self-cleavage kobs at 10000 uM GlcN6P included
>  <SEQUENCE CONTENT>
AUAAAAGCGCCAGAACUACAGAAAUGUAGUUGACGAGGAGGAGGUUUAUCGAAAUUUCAGCGGAUGCCUCCAAA [U54A G59A]

>  <DATA VALUE>
4.72e-05

$$$$
>  <SEQUENCE CONTENT>
AUAAAAGCGCCAGAACUACAGAAAUGUAGUUGACGAGGAGGAGGUUUAUCGAAUAGUCGGCGGAUGCCUCCAAA [U55A U56G]

>  <DATA VALUE>
0.0097

$$$$
>  <SEQUENCE CONTENT>
AUAAAAGCGCCAGAACUACAGAAAUGUAGUUGACGAGGACGAGGUUUAUCGAAUUUUCGGCGGACGCCUCCAAA [G40C U65C]

>  <DATA VALUE>
0.000172

$$$$

Enquiry: Supply recorded self-cleavage kobs at 10000 uM GlcN6P for AUAAAAGCGCCAGAACUACAGAAAUGUAGUAGACGAGGAGGAGGUUUAUCGAAUAUUCGGCGGAUGCCUCCAAA [U31A U55A] here.
Return: 0.0182

Enquiry: Supply recorded self-cleavage kobs at 10000 uM GlcN6P for AUAAAAGCGACAGAACUACAGAAAUGUAUUUGACGAGGAGGAGGUUUAUCGAAUGUUCGGCGGAUGCGUCCAAA [C10A G29U U55G C68G] here.
Return: 3.81e-05

Enquiry: Supply recorded self-cleavage kobs at 10000 uM GlcN6P for AUAAAAGCGCCAGAACUACAGAAAUGUAGUUGACGAGGCGGAGGUUUAUCGAAUUUUCGGCGGAUGCCUCAAAA [A39C C71A] here.
Return: 5.25e-05

Enquiry: Supply recorded self-cleavage kobs at 10000 uM GlcN6P for AUAAAAGCGGCAGAACUACAGAAAUGUAGUUUACGAGGAGGAGGUUUAUCGAGUUUUGGCCGGAUGCCUCCAAA [C10G G32U A53G C58G G60C] here.
Return: 0.000266
